# Test system: SF-539 CNS
# EXPERIMENT: NCI-60 one-dose screen, 48 h (100 = growth as untreated, 0 = no growth, -100 = all killed)
# EXPERIMENTAL_SETUP: 10 µM unless noted
Compounds without any hit were thinned out: in the full panel of roughly 83,000, 20% have a hit.
VALUE_TYPE: growth (%)
Numbers only, in %.

Dear colleague, could you send me growth for each of the items below? Thanks.
1. O=C(O)c1c[nH]c2ccccc2c1=O
2. Cc1cccc(C)c1NC(=S)/N=C\c1c(O)[nH]c(=O)[nH]c1=O
3. Cc1ccc2nc(N)nnc2c1
4. CN(C)c1ncnc2c1cnn2C
5. O=[N+]([O-])c1ccc(-c2nc(N(CCO)CCO)c3ccccc3n2)o1
6. Cn1c(=O)c2[nH]c(CCCCC(=O)O)nc2n(C)c1=O
7. CC(C)=CCC[C@@H](C)[C@H]1CC[C@@]2(C)C3=C(CC[C@]12C)[C@@]1(C)CC[C@H](O)C(C)(C)[C@@H]1CC3
8. C=C(C)[C@@H]1CC[C@]2(CO)CC[C@]3(C)[C@H](CC[C@@H]4[C@@]5(C)CC[C@H](O)C(C)(C)[C@@H]5CC[C@]43C)[C@@H]12

A.
1: 93.9; 2: 112; 3: 103; 4: 94.2; 5: -48.9; 6: 106; 7: 101; 8: -33

---

# Tested on: NCI-H522 lung
# EXPERIMENT: NCI-60 one-dose screen, 48 h (100 = growth as untreated, 0 = no growth, -100 = all killed)
# EXPERIMENTAL_SETUP: 10 µM unless noted
The panel holds about 83,000 compounds, 20% with a hit somewhere; the sample as a whole holds those more often. Calls of active or inactive are those of the source. Rule for the calls: active = growth percent below 10; inactive = the rest.
VALUE_TYPE: growth

>  <MOLECULE>
CCOC(=O)CSCCC#N

>  <TEST_TARGET>
NCI-H522 lung

>  <growth>
96.3% (inactive)

$$$$
>  <MOLECULE>
c1cc(CNCCNCc2ccncc2)ccn1

>  <TEST_TARGET>
NCI-H522 lung

>  <growth>
108% (inactive)

$$$$
>  <MOLECULE>
CC(C)NC(=O)OCc1c(COC(=O)NC(C)C)c(-c2ccc(Cl)cc2)n2c1CCC2

>  <TEST_TARGET>
NCI-H522 lung

>  <growth>
51.2% (inactive)

$$$$
>  <MOLECULE>
Cc1cc(C(=O)c2ccccc2)cc(C)c1O

>  <TEST_TARGET>
NCI-H522 lung

>  <growth>
104% (inactive)

$$$$
>  <MOLECULE>
Nc1cc2c(cc1Cl)C(=O)c1ccccc1C2=O

>  <TEST_TARGET>
NCI-H522 lung

>  <growth>
65% (inactive)

$$$$

Please report growth for every entry that follows.
1. COc1cc(OC)c(NC(=O)C(Sc2nc(C)cc(C)c2C#N)c2ccccc2)cc1Cl (configuration not stated)
2. NC(=O)N1CCOCC1

A.
["82.1% (inactive)", "94.2% (inactive)"]

---

# Test system: COLO 205 colon
# EXPERIMENT: NCI-60 one-dose screen, 48 h (100 = growth as untreated, 0 = no growth, -100 = all killed)
# EXPERIMENTAL_SETUP: 10 µM unless noted
The panel holds about 83,000 compounds, 20% with a hit somewhere; the sample as a whole holds those more often.
VALUE_TYPE: growth (%)
Numbers only, in %.

>  <COMPOUND>
O=C(CC(CC(=O)c1ccccc1)c1ccccn1)c1ccccc1

>  <UOM>
%

>  <growth>
101

$$$$
>  <COMPOUND>
Cc1ccc(/C=N/NC(N)=S)s1

>  <UOM>
%

>  <growth>
104

$$$$
>  <COMPOUND>
ClCC(Cl)C1CCC(Cl)C(Cl)C1 (centres undefined)

>  <UOM>
%

>  <growth>
109

$$$$

Please state growth for every compound in the list that follows.
1. CCNc1ncnc2[nH]ncc12
2. CCNC(=O)Oc1ccc[nH]c1=O
3. Nc1cccc2cccc(O)c12
4. Clc1cccc(Cl)c1CSc1nc2ccccc2n2cccc12
5. Cc1cc(NC(=O)c2ccccc2)c(Cl)cc1N
6. COc1ccc(C(=O)C(=O)c2ccccc2)cc1
7. C=CCC(OC(C)=O)c1ccc(C(C)C)cc1 (centres undefined)

A.
1. 114
2. 117
3. 102
4. 91.2
5. 129
6. 112
7. 122
